From: ChEMBL document CHEMBL3576793

- targetEntity: ATP-dependent translocase ABCB1 (Homo sapiens, UniProt P08183)
- Sequence (P08183 whole entry): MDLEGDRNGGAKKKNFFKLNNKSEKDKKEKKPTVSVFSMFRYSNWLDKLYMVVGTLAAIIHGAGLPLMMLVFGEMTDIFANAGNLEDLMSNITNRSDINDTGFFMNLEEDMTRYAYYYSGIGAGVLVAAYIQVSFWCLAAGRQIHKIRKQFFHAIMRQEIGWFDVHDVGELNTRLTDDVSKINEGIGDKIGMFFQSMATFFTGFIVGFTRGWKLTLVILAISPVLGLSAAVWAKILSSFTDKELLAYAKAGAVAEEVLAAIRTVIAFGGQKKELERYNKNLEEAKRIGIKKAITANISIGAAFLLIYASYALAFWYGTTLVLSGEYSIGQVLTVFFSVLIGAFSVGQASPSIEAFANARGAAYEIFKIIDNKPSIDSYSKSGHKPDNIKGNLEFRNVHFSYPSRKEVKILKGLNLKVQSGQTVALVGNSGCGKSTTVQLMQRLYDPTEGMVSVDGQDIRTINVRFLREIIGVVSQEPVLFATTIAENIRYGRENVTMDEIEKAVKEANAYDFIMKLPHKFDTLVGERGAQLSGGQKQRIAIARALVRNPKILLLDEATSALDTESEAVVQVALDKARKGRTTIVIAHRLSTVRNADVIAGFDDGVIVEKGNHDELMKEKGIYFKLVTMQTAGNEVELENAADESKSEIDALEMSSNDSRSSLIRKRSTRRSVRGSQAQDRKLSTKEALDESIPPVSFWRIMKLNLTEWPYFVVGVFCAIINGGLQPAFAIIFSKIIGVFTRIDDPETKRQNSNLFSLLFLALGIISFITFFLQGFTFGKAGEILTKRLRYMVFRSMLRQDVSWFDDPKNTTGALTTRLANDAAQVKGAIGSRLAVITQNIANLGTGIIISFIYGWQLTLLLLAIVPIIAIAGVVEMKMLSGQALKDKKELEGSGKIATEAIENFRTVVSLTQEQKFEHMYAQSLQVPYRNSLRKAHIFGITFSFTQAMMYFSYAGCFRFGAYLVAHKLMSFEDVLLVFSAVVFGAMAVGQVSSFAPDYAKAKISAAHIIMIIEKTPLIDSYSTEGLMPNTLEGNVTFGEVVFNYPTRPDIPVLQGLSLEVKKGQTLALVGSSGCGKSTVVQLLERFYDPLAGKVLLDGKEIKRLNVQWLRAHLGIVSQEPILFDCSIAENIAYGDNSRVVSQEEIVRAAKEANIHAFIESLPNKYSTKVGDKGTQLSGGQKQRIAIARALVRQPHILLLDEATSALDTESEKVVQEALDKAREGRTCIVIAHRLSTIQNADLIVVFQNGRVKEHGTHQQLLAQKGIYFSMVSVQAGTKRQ
- method: Inhibition of human MDR1 transfected in mouse NIH/3T3 MDR1-G185 cells assessed as daunomycin accumulation at 10 uM after 30 mins by flow cytometry (reference value: 13.2 +/- 1.1%)
- Type: cell-based
- Set-up: scale not given: the % may be the effect or the level left
- conditionDetails: nih/3t3 mdr1-g185, 0.5 h
parameterMeasured: Activity (%)

Query: Reported Activity for "CC(=O)O[C@@H]1[C@@H]2[C@@H](OC(=O)c3ccccc3)[C@@]3(OC2(C)C)[C@](C)([C@@H]1OC(=O)c1ccccc1)[C@@H](OC(C)=O)[C@@H](O)C[C@]3(C)O" : what is it?
Response: 73.2

Query: Reported Activity for "CC(=O)OC[C@]12[C@@H](OC(=O)c3ccccc3)[C@@H](OC(C)=O)[C@@H]3[C@@H](OC(=O)c4ccccc4)[C@]1(OC3(C)C)[C@@](C)(O)C[C@H](OC(C)=O)[C@@H]2OC(C)=O" : what is it?
Response: 79.7

Query: Fill in: Activity of "CC(=O)OC[C@]12[C@@H](OC(=O)c3ccccc3)[C@@H](O)[C@@H]3[C@@H](OC(C)=O)[C@]1(OC3(C)C)[C@@](C)(O)C[C@H](OC(=O)c1ccccc1)[C@@H]2OC(C)=O" is ___
Response: 73.2

Query: Look up Activity for this compound: "CC(=O)OC[C@]12[C@@H](OC(=O)c3ccccc3)[C@@H](OC(C)=O)[C@@H]3[C@@H](OC(C)=O)[C@]1(OC3(C)C)[C@@](C)(O)C[C@H](OC(=O)c1ccccc1)[C@@H]2OC(C)=O"
Response: 73.8

Query: Would you mind telling me what Activity value was observed for "CC(=O)OC[C@]12[C@@H](OC(=O)c3ccccc3)C[C@@H]3[C@@H](OC(C)=O)[C@]1(OC3(C)C)[C@@](C)(O)C[C@H](OC(=O)c1ccccc1)[C@@H]2OC(C)=O" ?
Response: 73.6

====

- targetEntity: ATP-dependent translocase ABCB1 (Homo sapiens)
- method: Inhibition of human MDR1 transfected in mouse NIH/3T3 MDR1-G185 cells assessed as daunomycin accumulation at 10 uM after 30 mins by flow cytometry (reference value: 13.2 +/- 1.1%)
- Format: cell-based
- Design: scale not given: the % may be the effect or the level left
- conditionDetails: nih/3t3 mdr1-g185, 0.5 h
parameterMeasured: Activity (%)

Example entries begin here.
Query: State its Activity on ATP-dependent translocase ABCB1 (Homo sapiens): "CC(=O)OC[C@]12[C@@H](OC(=O)c3ccccc3)[C@@H](OC(C)=O)[C@@H]3[C@@H](OC(C)=O)[C@]1(OC3(C)C)[C@@](C)(O)C[C@H](OC(C)=O)[C@@H]2OC(C)=O"
Response: 69.9

Query: Hi! What's the reported Activity for "CC(=O)O[C@H]1C[C@](C)(O)[C@]23OC(C)(C)[C@H]([C@H](OC(=O)/C=C/c4ccccc4)[C@H](OC(=O)c4ccccc4)[C@]2(C)[C@H]1OC(C)=O)[C@H]3O" on ATP-dependent translocase ABCB1 (Homo sapiens)?
Response: 85.1

Query: Form: Entry = "CC(=O)O[C@H]1[C@@H](OC(=O)c2ccccc2)C[C@@H](C)[C@]23OC(C)(C)[C@H](C[C@H](OC(=O)c4ccccc4)[C@]12C)[C@H]3OC(=O)c1cccnc1" | System = ATP-dependent translocase ABCB1 (Homo sapiens) | Activity = ____
Response: 80.1

Query: Under ATP-dependent translocase ABCB1 (Homo sapiens): Activity value of COc1ccc(CCN(C)CCCC(C#N)(c2ccc(OC)c(OC)c2)C(C)C)cc1OC (centres undefined) ?
Response: 60.3

Query: Write down the reported Activity of "CC(=O)OC[C@]12[C@@H](OC(=O)c3ccccc3)[C@@H](OC(C)=O)[C@@H]3C[C@]1(OC3(C)C)[C@H](C)C[C@H](OC(C)=O)[C@@H]2OC(C)=O" , test system: ATP-dependent translocase ABCB1 (Homo sapiens).
Response: 68.2

Query: API: value(readout= Activity, system= ATP-dependent translocase ABCB1 (Homo sapiens), query= "CC(=O)O[C@H]1CC[C@](C)(O)[C@]23OC(C)(C)[C@H]([C@H](OC(=O)/C=C\c4ccccc4)[C@H](OC(=O)c4ccccc4)[C@]12C)[C@H]3OC(C)=O" )
Response: 82.2

1. CC(=O)O[C@H]1[C@@H]2[C@@H](OC(=O)c3ccccc3)[C@@]3(OC2(C)C)[C@@](C)([C@@H](O)[C@@H](OC(C)=O)C[C@]3(C)O)[C@H]1OC(=O)c1ccccc1
2. CC(=O)O[C@H]1[C@@H](OC(=O)c2ccccc2)[C@]2(C)[C@@H](O)[C@@H](OC(C)=O)C[C@](C)(O)[C@@]23C[C@@H]1C(C)(C)O3
Query: Problem: Given the entries 1 and 2 , determine which has the lower reported Activity. Pick one and reply with its label.
Response: 2
